Each item that follows carries a reported peptide exchange yield.
- target or test system: HLA-A*24 (human)
- protocol: UV-exchange ELISA, exchange yield grade

[
  {
    "binder": "KYIDYLMTW [… (SEQ ID NO: 129)]",
    "peptide exchange yield": "> 75%"
  },
  {
    "binder": "VWLPASVLF [… (SEQ ID NO: 279)]",
    "peptide exchange yield": "50 to 75%"
  },
  {
    "binder": "RYSTFSEIF [… (SEQ ID NO: 192)]",
    "peptide exchange yield": "50 to 75%"
  },
  {
    "binder": "IYISNSIYF [… (SEQ ID NO: 217)]",
    "peptide exchange yield": "> 75%"
  },
  {
    "binder": "VYNEQIRDLL [… (SEQ ID NO: 354)]",
    "peptide exchange yield": "50 to 75%"
  },
  {
    "binder": "VFKSEGAYF [… (SEQ ID NO: 211)]",
    "peptide exchange yield": "> 75%"
  },
  {
    "binder": "RYVFPLPYL [… (SEQ ID NO: 272)]",
    "peptide exchange yield": "> 75%"
  }
]

Q: Which peptide exchange yield reading was recorded for the binder KYPDIASPTF [… (SEQ ID NO: 250)] ?
A: 20 to 49%
